# test.description: Log P by HPLC on reversed phase columns (EEC directive 79/831 Annex V.A8; methods [a], [b], [c])
# Format: physicochemical
measure.name: LogP

# molecule, LogP
data = [
    ("N#Cc1cncn1CC(O)(c1c(F)cc(F)cc1Cl)C1(Cl)CC1 (centres unmarked) [I-563]", "2.45^[a]"),
    ("N#Cc1cncn1CC(O)(c1cccc(F)c1Cl)C1(F)CC1 (centres unmarked) [I-555]", "2.12^[a]"),
    ("N#Cc1cncn1CC(O)(c1ccc(F)cc1F)C1CCCC1 (centres unmarked) [I-478]", "2.78^[a]"),
]

LogP measured on N#Cc1cncn1CC(O)(c1ccc(F)c(Cl)c1F)C1(Cl)CC1 (centres unmarked) [I-627] = 2.52^[a]

Just so you know, measured LogP for CCC(C)C(O)(Cn1cncc1C#N)c1ccc(Cl)cc1 (single isomer, unassigned) [I-325] came out at 2.73^[a]

Data origin: patent US20200031778A1
